Molecular target: RAF proto-oncogene serine/threonine-protein kinase (Homo sapiens, UniProt P04049, Y340D/Y341D)
Sequence (P04049 whole entry Y340D/Y341D): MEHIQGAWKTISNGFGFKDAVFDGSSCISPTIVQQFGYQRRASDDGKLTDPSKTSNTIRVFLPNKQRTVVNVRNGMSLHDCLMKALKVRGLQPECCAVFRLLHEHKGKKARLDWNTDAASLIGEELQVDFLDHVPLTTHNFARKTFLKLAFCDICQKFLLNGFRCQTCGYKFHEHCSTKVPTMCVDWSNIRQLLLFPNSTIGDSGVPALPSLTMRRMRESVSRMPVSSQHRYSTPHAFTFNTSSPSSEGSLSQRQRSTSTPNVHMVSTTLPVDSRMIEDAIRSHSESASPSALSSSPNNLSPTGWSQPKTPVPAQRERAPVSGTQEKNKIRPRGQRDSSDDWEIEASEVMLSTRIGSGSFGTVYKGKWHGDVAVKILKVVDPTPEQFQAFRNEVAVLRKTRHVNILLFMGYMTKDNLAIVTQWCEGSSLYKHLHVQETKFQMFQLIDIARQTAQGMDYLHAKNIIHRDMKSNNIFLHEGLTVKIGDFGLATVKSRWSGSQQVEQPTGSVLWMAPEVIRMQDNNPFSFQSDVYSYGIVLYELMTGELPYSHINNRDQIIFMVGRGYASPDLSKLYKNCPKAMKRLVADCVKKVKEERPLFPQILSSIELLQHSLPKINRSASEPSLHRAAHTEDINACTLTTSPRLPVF
Experiment: Raf IC50 Assay: Compounds disclosed herein were tested against B-Raf (V600E) (PV3849, from Invitrogen) or C-Raf (Y340D/Y341D) (PV3805, from Invitrogen) in a time-resolved fluorescence energy transfer assay. The assay was carried out in reactions (10 uL) containing 0.0625 nM B-Raf or 0.5 nM C-Raf, 25 mM Tris pH7.4, 10 mM MgCl2, 0.5 mM EGTA, 0.5 mM […], 5 mM beta-glycerophosphate, 0.01% Triton X-100, 2.5 mM DTT, 0.1% BSA, 0.1 mM ATP, 13.7 nM GST-tagged MEK1 (Full-length protein with K97R mutation, recombinant protein purified from bacterial expression system) and 0-5 uM compounds disclosed herein (final concentration of 1% DMSO). The enzyme was incubated with the compounds at room temperature for 60 minutes and the reactions were initiated by the addition of ATP and GST-MEK1. After incubating at room temperature for 60 minutes, an equal volume of stop buffer containing 25 mM Tris pH7.4, 400 mM KF, 50 mM EDTA, 0.01% BSA, 0.01% Triton X-100, 1 test of Eu3+ Cryptate-conjugated rabbit polyclonal antibody anti-Phospho MEK1/2 (Ser217/221) and 1 test of d2-conjugated mouse monoclonal antibody anti-glutathione S-transferase was added to stop the reactions. Plates were sealed and incubated at room temperature for 2 hours, and then the TR-FRET signals were read on BMG PHERAstar FS instrument. The IC50 for each compound was calculated by non linear regression by Graphpad Prism software.
Let's look at some molecules and their measured log10 IC50.
measuredParameter: log10 IC50 (log10 of the value in nM)

* O=C1CCc2c(Oc3ccc4c(c3)C3C(O4)C3c3nc4ccc(-c5ccccc5)cc4[nH]3)ccnc2N1 (racemic) | 1.91
* O=C1CCc2c(ncc(Cl)c2Oc2ccc3c(c2)C2C(O3)C2c2nc3ccc(C(F)(F)F)cc3[nH]2)N1 (racemic) | 2.64
* O=C1CCc2c(Oc3ccc4c(c3)C3C(O4)C3c3nc4cc(Cl)c(C(F)(F)F)cc4[nH]3)ccnc2N1 (racemic) | 0.70
* O=C1CCc2c(Oc3ccc4c(c3)C3C(O4)C3c3nc4ccc(C(F)(F)F)cc4[nH]3)ccnc2N1 (racemic) | 0.15
* O=C1CCc2c(Oc3ccc4c(c3)C3C(C4)C3c3nc4ccc(C(F)(F)F)cc4[nH]3)ccnc2N1 (racemic) | 1.08

Attribution: ChEMBL document CHEMBL3886567
